This collection of values is drawn from PubChem BioAssay (NCATS).

test system: SC27B; experiment: qHTS profiling for inhibitors of Plasmodium falciparum proliferation (AID 504749); further: nearly all actives have a fitted effect of over 60% in size; details: P. falciparum in erythrocytes, SYBR Green DNA, 72 h; series mostly up to 28.7 µM
Results filed as inconclusive are left out. Activity calls are given as the source filed them. The call rests on the fitted dose curve; in most records, active means well fitted inhibition curve with a large enough effect; inconclusive means small, poorly fitted or top-dose-only effect; inactive means flat fitted curve, though single readings scatter.
Log the outcome using a class from active, inactive

// below: answered molecules
O=C(O)[C@@H](O)[C@@H](O)[C@H](O)C(=O)CO : inactive
CC(=O)N1CCN(c2ccc(OC[C@@H]3CO[C@@](Cn4ccnc4)(c4ccc(Cl)cc4Cl)O3)cc2)CC1 : inactive
O=C(O)[C@@H](S)[C@H](S)C(=O)O : active
C=C(NC(=O)C(=C)NC(=O)c1csc(C2=N[C@@H]3c4csc(n4)[C@@H]4NC(=O)c5csc(n5)[C@@H]([C@](C)(O)[C@H](C)O)NC(=O)[C@@H]5CSC(=N5)/C(=C/C)NC(=O)[C@@H]([C@H](C)O)NC(=O)c5csc(n5)[C@]3(CC2)NC(=O)[C@@H](C)NC(=O)C(=C)NC(=O)[C@@H](C)NC(=O)[C@@H]([C@@H](C)CC)N[C@H]2C=Cc3c([C@H](C)O)cc(nc3[C@@H]2O)C(=O)O[C@H]4C)n1)C(N)=O : inactive
Cc1cn([C@H]2C[C@H](N=[N+]=[N-])[C@H](CO)O2)c(=O)[nH]c1=O : inactive

Please examine the following record next.
Tell me the assay call for CO/N=C(\C(=O)N[C@@H]1C(=O)N2C(C(=O)[O-])=C(C[N+]3(C)CCCC3)CS[C@@H]12)c1csc(N)n1 please.
inactive

====

assay: qHTS Assay for Identification of Small Molecule Agonists for Hypoxia Response Element Signaling Pathway (AID 914); settings: ME-180 HRE-bla reporter, beta-lactamase ratio, CoCl2, 17 h; stronger effect = higher value; further: % of control where 0% means no effect
Inconclusive results are not listed.
measuredProperty: activation (%)
Record the value in %, omitting the unit from your answer.

NS(=O)(=O)c1ccc(NC(=O)Nc2ccccc2F)cc1 : 3.83
NC[C@H]1O[C@@H](n2cnc3c(=O)[nH]c(N)nc32)[C@@H](O)[C@@H]1O : 4.86
CC(C)CCC[C@@H](C)[C@@H]1CC[C@@H]2[C@H]3CC[C@H]4C[C@@H](N)CC[C@@]4(C)[C@@H]3CC[C@]21C : 7.37
O=[N+]([O-])c1cccc(/C=N\NC2=CS(=O)(=O)C=C2)c1 : 1.06
CC1=N[C@@](C)(COC(=O)[C@]2(C)N[C@](C)(CO)CO2)COC1=O : 5.98
C[C@@]12CC[C@H]3[C@H](CC=C4C[C@@H](O)CC[C@@]43C)[C@@H]1CC[C@@H]2N(CCO)CCO : 9.1
CC(C)(Oc1ccc(-c2cccc3ccccc23)cc1)C(=O)O : -19.2
CC(=O)O[C@H]1CC[C@@]2(C)C(=CC[C@@H]3[C@H]4CC[C@@H]([C@H](C)C(=O)O)[C@]4(C)CC[C@H]32)C1 : 1.23

Indicate the recorded activation value for this compound: N#Cc1c(NC(=O)CCC(=O)O)ccc2ccccc12
3.84

Indicate the recorded activation value for this compound: OCCCNCc1ccncc1
1.84

Indicate the recorded activation value for this compound: NC(=O)CS(=O)C[C@H](N)C(=O)O (stereo partly drawn)
18.8

Indicate the recorded activation value for this compound: Cc1ccc2c(c1)N[C@H](c1ccc(C(=O)O)cc1)c1cccn1-2
-21.9

Indicate the recorded activation value for this compound: Cc1cc(C(C)(C)C)c(OCCCN2CCOCC2)c(C(C)(C)C)c1
1.57

Indicate the recorded activation value for this compound: CN1CCc2cc(Cl)c(O)cc2[C@H](c2ccccc2)C1
-21.3

Indicate the recorded activation value for this compound: N[C@@H](Cc1c[nH]c2ccc([N+](=O)[O-])cc12)C(=O)O
-2.55

====

test: qHTS assay for small molecule agonists of retinoid X receptor alpha signaling (AID 588544); details: HEK293T RXRa-UAS-bla, beta-lactamase reporter, 18 h; 530 nm emission
Inconclusive results are not listed.
measuredProperty: max response (%)
Record the value in %, omitting the unit from your answer.

Previously resolved entries follow.
CC(C)OCC1CO1 (configuration not stated) : -12.5
C=Cc1cccc(C)c1 : -15.6

Indicate the recorded max response value for this molecule: CC(=O)OCc1ccc2c(c1)OCO2
17.8

Indicate the recorded max response value for this molecule: Nc1ccc(N)c(Cl)c1
15.5

Indicate the recorded max response value for this molecule: CCNC(=S)NCC
-2.72

Indicate the recorded max response value for this molecule: c1ccc(CSCc2ccccc2)cc1
-16.6

Indicate the recorded max response value for this molecule: CCCCCCCC/C=C\CCCCCCCC(=O)N(CCO)CCO
13.2

Indicate the recorded max response value for this molecule: O=CC(=O)c1ccccc1
-0.232

Indicate the recorded max response value for this molecule: c1ccc(SCCSc2ccccc2)cc1
-9.01

Indicate the recorded max response value for this molecule: C=CC(=O)CC
-11.5

Indicate the recorded max response value for this molecule: Nc1ccccc1O
23.5

Indicate the recorded max response value for this molecule: c1c[nH]cn1
1.75

Indicate the recorded max response value for this molecule: Oc1ccc(O)c2c(O)cccc12
-16.7

Indicate the recorded max response value for this molecule: O=C(O)/C=C/c1ccc(/C=C/C(=O)O)cc1
9.62

Indicate the recorded max response value for this molecule: Cc1ccc(N)cc1[N+](=O)[O-]
4.03

Indicate the recorded max response value for this molecule: Oc1cc(Cl)cc(Cl)c1Cl
0.211

Indicate the recorded max response value for this molecule: CCCCC(CC)COCCCN (configuration not stated)
1.27

====

// activity, negative = inhibition lookup, one value per entry
assay: Stat Signaling Pathway (AID 446); conditions: ME-180 (cervical carcinoma) SIE beta-lactamase reporter, IL-6 stimulated, 5 h; at 7.69 µM (top of the series) unless noted;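 further: ME-180 cervical cancer cells given 40 pM IL-6 alongside compound; SIE-controlled beta-lactamase reporter measured as 460/530 nm FRET emission ratio; on the % scale 0 is the no-effect control and ±100 the full control effect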
Records with an inconclusive call do not appear.
Record the value in %, omitting the unit from your answer.

Previously resolved entries follow.
COc1ccc(C=Nc2c(O)ccc3ccccc23)cc1OC : -1.67
CC(=O)[C@]1(O)CC[C@@H]2[C@H]3C[C@@H](C)C4=CC(=O)CC[C@@]4(C)[C@H]3[C@@H](O)C[C@]21C : -9.62
O=C(O)CCC(=O)c1ccc2ccc3cccc4ccc1c2c34 : -5.24
NS(=O)(=O)c1ccc(N=Nc2c(O)c(C(=O)O)cc3ccccc23)cc1 : 5.99
O=C(O)[C@H](Cc1ccccc1)N1C(=O)c2ccccc2C1=O : -2.52
O=C(O)/C=C\C(=O)N1Cc2cc3ccccc3nc2C1 : 12.1
C[C@@]12C[C@H](O)[C@@H]3[C@H](CCC4=CC(=O)CC[C@]43C)[C@H]1CC[C@@H]2c1csc(-c2ccccc2)n1 : -6.13
CC[C@H](C(=O)c1cccs1)C(O)(C(F)(F)F)C(F)(F)F : -6.19

Indicate the recorded activity, negative = inhibition value for this compound: O=S(=O)(O)CCCc1cccc2ccccc12
1.1

Indicate the recorded activity, negative = inhibition value for this compound: O=C(O)CSc1ccc(N=C=S)cc1
5.22

====

molecular target: Endonuclease 4 (Escherichia coli (strain K12)) (UniProt P0A6C1); assay: Counterscreen for APE1 Inhibitors: qHTS Assay for Inhibitors of Endonuclease IV (AID 2565);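 further: plate controls were uninhibited enzyme wells for no effect and no enzyme buffer wells for full effect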; conditions: E. coli Endo IV, fluorogenic AP-site DNA cleavage; series mostly up to 27.1 µM
Some of the results follow. Results filed as inconclusive are left out. Active and inactive are the calls of the source. The call rests on the fitted dose curve; in most records, active means well fitted inhibition curve with a large enough effect; inconclusive means small, poorly fitted or top-dose-only effect; inactive means no such curve, though single readings can be large or run the other way.
measuredProperty: outcome

Cc1cc(C)c2nc(-c3ccco3)cc(C(=O)O)c2c1 : inactive
O=C(Cc1ccc(S(=O)(=O)N2CCOCC2)s1)NCCC(c1ccccc1)c1ccccc1 : inactive
N/C(=N\OC(=O)Nc1ccccc1)c1ccno1 : inactive
O=c1nc2s/c(=C\c3ccco3)c(=O)n2nc1Cc1ccccc1 : inactive
N#Cc1ccccc1CN1C(=O)S/C(=C/c2cccn2-c2cccc(C(=O)O)c2)C1=O : inactive
CC(C)(C)C(=O)OCc1nc(-c2ccc(O)c(O)c2)cs1 : inactive
C=CCn1c(=S)[nH]c2scc(-c3ccco3)c2c1=O : inactive

Next up:
Indicate the recorded outcome value for this compound: O=C(CN1CCN(S(=O)(=O)/C=C/c2ccccc2)CC1)NC(=O)NCc1ccco1
inactive

====

molecular target: Retinoic acid receptor RXR-alpha (Homo sapiens); assay: qHTS assay for small molecule antagonists of retinoid X receptor alpha signaling (AID 588546); conditions: HEK293T RXRa-UAS-bla, beta-lactamase ratio, antagonist mode;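 further: cells stimulated with 9-cis-retinoic acid as agonist; on the % scale 0 is the no-effect control and ±100 the full control effect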
Inconclusive results are not listed. Active and inactive are the calls of the source. Calls come from the whole dose curve; as a rule, active = well fitted inhibition curve with a large enough effect in the signal ratio, with a control signal flat (not every such curve was filed as active); inconclusive = small, poorly fitted or top-dose-only effect, or effect the other way, or a change in a side signal; inactive = no such curve, though single readings can be large or run the other way; the % refers to the signal ratio.
// max response lookup, one value per entry

Indicate the recorded max response value for this compound: CCCCC(CC)COCCCN (stereo not drawn)
10.8% (inactive)

Indicate the recorded max response value for this compound: Cc1c(N)cccc1Cl
1.61% (inactive)

Indicate the recorded max response value for this compound: C=CC(=O)CC
10.2% (inactive)

====

target: Androgen receptor (Homo sapiens) (UniProt P10275); assay: qHTS assay for small molecule agonists of androgen receptor signaling (AID 588515); conditions: AR-UAS-bla HEK293, beta-lactamase ratio, agonist 16 h; stronger effect = higher value; further: on the % scale 0 is the no-effect control and ±100 the full control effect
Sequence (P10275 whole entry, looked up): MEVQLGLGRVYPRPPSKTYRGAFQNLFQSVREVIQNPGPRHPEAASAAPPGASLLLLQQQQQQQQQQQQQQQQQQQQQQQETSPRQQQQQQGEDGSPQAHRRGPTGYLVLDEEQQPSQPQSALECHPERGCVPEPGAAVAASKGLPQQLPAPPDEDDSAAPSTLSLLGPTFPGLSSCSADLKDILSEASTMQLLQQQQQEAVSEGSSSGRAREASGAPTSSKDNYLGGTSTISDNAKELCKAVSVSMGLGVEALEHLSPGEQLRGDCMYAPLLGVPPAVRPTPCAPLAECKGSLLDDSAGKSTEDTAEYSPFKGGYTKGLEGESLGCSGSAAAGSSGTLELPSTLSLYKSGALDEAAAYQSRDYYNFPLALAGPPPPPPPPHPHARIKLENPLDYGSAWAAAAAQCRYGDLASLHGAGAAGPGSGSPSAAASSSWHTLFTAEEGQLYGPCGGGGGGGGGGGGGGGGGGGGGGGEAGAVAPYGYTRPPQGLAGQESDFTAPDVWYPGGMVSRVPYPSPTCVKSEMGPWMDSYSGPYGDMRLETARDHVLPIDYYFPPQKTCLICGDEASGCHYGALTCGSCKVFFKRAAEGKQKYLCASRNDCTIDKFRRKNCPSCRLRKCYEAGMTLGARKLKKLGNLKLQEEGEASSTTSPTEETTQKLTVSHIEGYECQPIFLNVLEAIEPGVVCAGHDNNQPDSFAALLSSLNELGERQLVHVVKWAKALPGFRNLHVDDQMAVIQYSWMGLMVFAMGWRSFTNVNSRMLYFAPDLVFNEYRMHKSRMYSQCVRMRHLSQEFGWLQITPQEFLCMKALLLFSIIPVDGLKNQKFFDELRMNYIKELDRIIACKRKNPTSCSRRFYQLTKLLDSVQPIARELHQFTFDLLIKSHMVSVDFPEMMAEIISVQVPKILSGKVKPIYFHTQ
Records with an inconclusive call do not appear.
measuredProperty: activation (%)
Record the value in %, omitting the unit from your answer.

Previously resolved entries follow.
COc1ccc(C)cc1N : 1.38
CCCCCCCCC1CO1 (stereo not given) : 13.4
c1ccc(SCCSc2ccccc2)cc1 : 12.3
CCc1ccc(C(c2ccc(CC)cc2)C(Cl)Cl)cc1 : -10.8

Indicate the recorded activation value for this compound: O=C(O)/C=C/c1ccc(/C=C/C(=O)O)cc1
-7.2

Indicate the recorded activation value for this compound: CCC(Cl)CC(Cl)C(Cl)C(Cl)C(Cl)C(C)Cl (stereo not given)
-4.22

Indicate the recorded activation value for this compound: C=CC(=O)OCCCCCCOC(=O)C=C
1.98

Indicate the recorded activation value for this compound: O=C(Cl)c1ccc([N+](=O)[O-])cc1
25.7

Indicate the recorded activation value for this compound: C/C(Cl)=C/CCl
10.2

Indicate the recorded activation value for this compound: CC(=O)OC(C(=O)c1ccccc1)c1ccccc1 (stereo not given)
-5.55
